Target: MAP kinase-activated protein kinase 3 (Homo sapiens) (UniProt Q16644)
Sequence (Q16644 whole entry, looked up): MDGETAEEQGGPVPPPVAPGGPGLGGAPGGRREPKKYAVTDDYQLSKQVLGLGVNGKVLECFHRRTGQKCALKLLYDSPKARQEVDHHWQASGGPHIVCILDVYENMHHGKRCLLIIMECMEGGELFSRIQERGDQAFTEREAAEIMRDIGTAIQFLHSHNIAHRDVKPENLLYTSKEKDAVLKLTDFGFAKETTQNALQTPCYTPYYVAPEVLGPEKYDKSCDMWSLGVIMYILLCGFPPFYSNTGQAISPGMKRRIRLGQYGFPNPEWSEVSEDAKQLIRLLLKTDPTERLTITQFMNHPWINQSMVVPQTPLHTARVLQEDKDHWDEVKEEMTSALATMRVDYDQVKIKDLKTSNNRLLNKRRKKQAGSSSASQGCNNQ
Conditions: at 1 µM
Readout Type: residual activity (%)
Quick note: give the figure in %, leave out the unit.

Field: example entries. Status: answers known.
{"Compound String": "O=C(CCCc1ccc(-c2ccccc2F)cc1)Nc1ccc(O)cc1", "Observed Result": 100}
{"Compound String": "CC(C)c1nn(-c2c(Cl)cccc2Cl)c2nc(Cc3ccc(OCCO)cc3)[nH]c(=O)c12", "Observed Result": 101}
{"Compound String": "CC(C)(C)c1cc(C=C(C#N)C#N)cc(Br)c1O", "Observed Result": 107}

Here is the next item to consider.
Task item: Given "COc1cc2nccc(Oc3ccc(NC(=S)NC(=O)c4ccccc4C)cc3)c2cc1OC" , state its recorded residual activity.
Reply: 101
